# assay method text: compound effects on multiple myeloma cell viability – MM1S, calcein-AM fluorescence, 48 h, basal, profiling panel (AID 1165); also: test concentration not given here
# applied conditions: higher = more signal
measured parameter: z-score
Numbers only.

1. COc1cc(CO)cc(I)c1O[C@H]1C=C(C(=O)NCCO)C[C@@H](NC2CCCCCC2)[C@@H]1O : -3.23
2. CC(C)NC(=O)[C@@]1(c2ccc([N+](=O)[O-])cc2)CC(=O)N(CC23CC4CC(CC(C4)C2)C3)[C@@H]1c1ccc(CO)cc1 : -2.06
3. COc1ccccc1CN1C(=O)c2ccccc2[C@](Cc2ccccc2I)(C(=O)NCC(C)C)[C@@H]1c1ccc(CO)cc1 : -0.746

Dear colleague, could you send me z-score for each of the items below? Thanks.
1. CC(C)C[C@@H]1NC(=O)[C@@H]2C[C@H](C(=O)NCCCCCCNC(=O)CS)[C@H](c3cccc(OCCO)c3)N2C1=O
2. C=C(CCCC)C(=O)CC[C@@H](OC(=O)c1ccccc1-c1ccccc1C(=O)O)c1ccccc1OCCO
3. COC(=O)[C@@]1(Cc2ccccc2)[C@H]2c3cc(C(=O)N(C)C)n(Cc4ccc(S(C)(=O)=O)cc4)c3C[C@H]2CN1C(=O)c1ccccc1
4. O=C(NCCN1CCOCC1)[C@@H]1c2ccccc2C(=O)N(Cc2ccccc2C(F)(F)F)[C@H]1c1ccc(CO)cc1
5. COC(=O)c1cccc([C@H]2OC(=CC(=O)OC(C)C)C[C@@H](c3cccc(C(=O)OC)c3)O2)c1
6. COC(=O)C(CC#Cc1ccc2c(c1)[C@]1(C(=O)N2)[C@H](C(=O)NC[C@H](O)c2ccccc2)[C@H]2C(=O)O[C@H](c3ccccc3)[C@H](c3ccccc3)N2[C@@H]1c1ccccc1OCCO)C(=O)OC
7. CC1CC/C=C\[C@H]2OC34C=CCN(c5ccc6ccccc6c5)C(=O)[C@H]3N(C(C)CO)C(=O)[C@@H]4C2C(=O)O1 (some centres undefined)

a:
1: -0.505; 2: -3.39; 3: 0.0168; 4: 0.561; 5: -3.15; 6: -3.29; 7: 1.6

Dear colleague, could you send me z-score for each of the items below? Thanks.
1. CC(C)=C1C(=O)C(c2ccccc2)=C2CN3C(=O)N(CCc4ccccc4)C(=O)[C@]3(C)[C@H]21
2. COCCCN1C(=O)[C@@]2(c3ccc([N+](=O)[O-])cc3)CC(=O)N(CC34CC5CC(CC(C5)C3)C4)[C@@H]2c2ccc(CO)cc21
3. CCOC(=O)C1=CCC(c2cc3ccccc3[nH]2)N(CCN2CC(C(=O)OCC)=CCC2c2cc3ccccc3[nH]2)C1 (centres undefined)

a:
1: -2.06; 2: 0.657; 3: 0.183

Dear colleague, could you send me z-score for each of the items below? Thanks.
1. O=C1O[C@@H](c2ccccc2)[C@@H](c2ccccc2)N2[C@@H](c3ccc(OCCO)cc3)[C@]3(C(=O)Nc4ccc(C#CC5(O)CCCCCC5)cc43)[C@@H](C(=O)O)[C@H]12
2. CCOC(=O)c1cn(C[C@H](Cc2ccccc2)NC(=O)N[C@H](CO)CCc2oc(C(C)=O)c(C(=O)OC)c2C(=O)OC)nn1

a:
0.213
-0.0594

Dear colleague, could you send me z-score for each of the items below? Thanks.
1. CN(C)C(=O)[C@]1(Cc2ccccc2)N=C(c2ccc(OCCCO)cc2)O[C@@H]1c1ccccc1CN=[N+]=[N-]
2. CCCC=C(CCC)[C@@H](NC(=O)OCC(C)C)c1ccc(C(=O)OC)cc1
3. COc1ccc(C(O)C2C=CC3C(=O)N(c4ccccc4)C(=O)C3N2Nc2ccc([N+](=O)[O-])cc2)c2ccccc12 (centres undefined)
4. O=C(NC1CC1)[C@@H]1c2ccccc2C(=O)N(Cc2ccc(OC(F)(F)F)cc2)[C@H]1c1ccc(CO)cc1

a:
1. -0.726
2. 0.753
3. -0.517
4. 0.0839

Dear colleague, could you send me z-score for each of the items below? Thanks.
1. C=C1C(=O)C=C2CN(C(=O)c3ccccc3)[C@@](Cc3ccc(OC)cc3)(C(=O)OC)[C@@H]12
2. COC(=O)[C@@]1(Cc2ccc(F)cc2)[C@H]2c3cc(C(=O)N4CCCC4)n(Cc4ccccn4)c3C[C@H]2CN1C(=O)c1ccccc1
3. CC1CC/C=C\[C@H]2OC34C=CCN(Cc5ccccc5)C(=O)[C@H]3N(CCCCCCO)C(=O)[C@@H]4C2C(=O)O1 (some centres undefined)
4. C=C(CCCC)/C(=C/C[C@@H](OC(C)=O)c1ccc(CO)o1)c1cnc2ccccc2c1
5. CCCCCCc1nc(-c2ccc(-c3ccc(Cl)c(Cl)c3)o2)cc2c1[Si](C(C)C)(C(C)C)OC2
6. C=C(CCCC)/C(=C/C[C@H](OC(=O)c1ccncc1)c1ccc(OCCO)cc1)c1cnc2ccccc2c1
7. COc1ccc(C(O)C2C=CC3C(=O)N(C)C(=O)C3N2N(c2ccccc2)c2ccccc2)cc1 (centres undefined)

a:
1: -1.73; 2: -0.333; 3: 1.41; 4: -1.56; 5: -3; 6: -2.55; 7: 0.513

Dear colleague, could you send me z-score for each of the items below? Thanks.
1. COC(=O)[C@@]1(Cc2ccc(OC)cc2)[C@H]2c3cc(C(=O)N4CCCC4)n(Cc4c(CO)[nH]cc(C)c4=O)c3C[C@H]2CN1C(=O)c1ccccc1
2. CN(C)CCCCNC(=O)[C@H]1C[C@H]2C(=O)N3CCC[C@H]3C(=O)N2[C@H]1c1cccc(OCCO)c1
3. COc1ccc([Si](C)(C)[C@@H]2[C@@H](CC(=O)N3CCC[C@H]3CO)O[C@]3(C(=O)N(Cc4ccc(N5CCOC5=O)cc4)c4ccccc43)[C@H]2C)cc1

a:
1. -0.206
2. 0.123
3. -2.64
